target: human NLRP3 (Homo sapiens, UniProt Q96P20); experiment: Scintillation Proximity (SPA) NLRP3 Assay, displacement of 3H-MCC950; assay type: binding; settings: Table B, activity class; displacement of 3H-MCC950 from human NLRP3
Sequence (Q96P20 whole entry): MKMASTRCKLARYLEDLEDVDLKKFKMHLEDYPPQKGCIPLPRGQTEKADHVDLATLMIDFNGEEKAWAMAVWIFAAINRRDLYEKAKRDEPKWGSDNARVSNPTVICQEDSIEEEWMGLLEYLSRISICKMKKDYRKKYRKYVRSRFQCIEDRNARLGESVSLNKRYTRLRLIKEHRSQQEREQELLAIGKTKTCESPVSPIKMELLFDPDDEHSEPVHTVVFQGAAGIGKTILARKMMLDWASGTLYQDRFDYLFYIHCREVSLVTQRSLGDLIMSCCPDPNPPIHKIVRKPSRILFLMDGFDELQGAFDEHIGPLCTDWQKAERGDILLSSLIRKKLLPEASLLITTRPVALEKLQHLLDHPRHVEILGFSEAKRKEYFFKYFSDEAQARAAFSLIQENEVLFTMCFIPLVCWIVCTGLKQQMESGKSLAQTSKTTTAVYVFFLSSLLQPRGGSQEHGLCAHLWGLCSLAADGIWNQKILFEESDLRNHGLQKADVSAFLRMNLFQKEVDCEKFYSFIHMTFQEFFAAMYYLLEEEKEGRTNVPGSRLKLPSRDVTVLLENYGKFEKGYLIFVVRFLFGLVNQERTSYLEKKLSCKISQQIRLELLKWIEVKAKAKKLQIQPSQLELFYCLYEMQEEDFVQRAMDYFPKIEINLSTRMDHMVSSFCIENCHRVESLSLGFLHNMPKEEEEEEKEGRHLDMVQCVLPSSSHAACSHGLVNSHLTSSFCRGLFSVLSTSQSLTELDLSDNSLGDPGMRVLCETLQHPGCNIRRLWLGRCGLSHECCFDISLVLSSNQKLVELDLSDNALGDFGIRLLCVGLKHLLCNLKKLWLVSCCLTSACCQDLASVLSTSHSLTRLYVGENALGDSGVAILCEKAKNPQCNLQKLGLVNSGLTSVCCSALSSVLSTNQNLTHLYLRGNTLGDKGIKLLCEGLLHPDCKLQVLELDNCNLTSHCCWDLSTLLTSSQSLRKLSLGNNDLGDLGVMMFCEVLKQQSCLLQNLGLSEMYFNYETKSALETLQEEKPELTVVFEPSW
Can you tell me IC50 for the items I'm about to list?

Tell us which IC50 value is on record for C[C@@H]1C[C@@H](NC(=O)N(C)c2c(F)cc(C3CC3)cc2F)[C@H]2CC[C@@H]1N2c1nnn[nH]1 (single isomer, unassigned) [60A*]
< 1 µM

Tell us which IC50 value is on record for C[C@H]1CCN(c2nnn[nH]2)C[C@H](NC(=O)N(C)c2c(F)cc(C3CC3)cc2F)C1 (single isomer, unassigned) [20C*]
10 to 50 µM

Tell us which IC50 value is on record for CCN(C(=O)N[C@H]1C[C@H](C)[C@H]2CC[C@@H]1N2c1nnn[nH]1)c1ccc(OC(F)F)cc1F (single isomer, unassigned) [65D*]
10 to 50 µM

====

biological target: UniProt:Q96P20; assay: Human PBMC NLRP3 Assay (LPS priming, ATP stimulation, cytokine measurement); format: cell-based; set-up: host or cells: human PBMCs (A2); human whole blood from healthy volunteers (A3); settings: Table C; human PBMC, LPS + ATP
Assay endpoint: IC50

Consider the molecule CN(C(=O)N[C@@H]1CCN(c2nnn[nH]2)C1)c1ccc(Cl)cc1 (single isomer, unassigned) [Comparative Example A*, reference compound] tested on UniProt:Q96P20; state its IC50.
> 100 µM

Consider the molecule O=C(N[C@@H]1CCCN(c2ccccc2)C1)c1ccc(Cl)cc1 [Comparative Example J1, reference compound] tested on UniProt:Q96P20; state its IC50.
> 100 µM

Consider the molecule CN(C(=O)N[C@H]1CCCN(c2ccccc2)C1)c1ccc(Cl)cc1 [Comparative Example D2, reference compound] tested on UniProt:Q96P20; state its IC50.
> 100 µM

Consider the molecule O=C(Nc1ccc(Cl)cc1)Nc1cccc(-c2nnn[nH]2)c1 [Comparative Example B1, reference compound] tested on UniProt:Q96P20; state its IC50.
> 5 µM

====

Can you tell me pIC50 for the items I'm about to list?
molecular target: human NLRP3 (Homo sapiens); test: Scintillation Proximity (SPA) NLRP3 Assay, displacement of 3H-MCC950; type: binding; settings: Table B, activity class; displacement of 3H-MCC950 from human NLRP3
pIC50: −log10 of the molar value.

Tell us which pIC50 value is on record for C[C@@H]1CCN(c2nnn[nH]2)C[C@H](NC(=O)N(C)c2ccc(OC(F)(F)F)c(F)c2F)C1 (single isomer, unassigned) [26A*]
> 6.00

Tell us which pIC50 value is on record for C[C@H]1CCN(c2nnn[nH]2)C[C@@H](NC(=O)N(CC2CC2)c2ccc(OC(F)(F)F)cc2)C1 (single isomer, unassigned) [44D*]
5.00 to 6.00

Tell us which pIC50 value is on record for C[C@@H]1CCN(c2nnn[nH]2)C[C@H](NC(=O)N(C)c2c(F)cc(OC(F)F)cc2F)C1 (single isomer, unassigned) [19A*]
> 6.00

Tell us which pIC50 value is on record for C[C@H]1C[C@@H](NC(=O)N(C)c2ccc3ocnc3c2)CN(c2nnn[nH]2)C1 [Compound 34A]
4.00 to 4.30

Tell us which pIC50 value is on record for C[C@@H]1CCN(c2nnn[nH]2)C[C@H](NC(=O)N(C)c2ccc(C(F)(F)F)cc2F)C1 (single isomer, unassigned) [13A*]
> 6.00

Tell us which pIC50 value is on record for C[C@H]1CCN(c2nnn[nH]2)C[C@H](NC(=O)N(C)c2ccc(Cl)cc2)C1 (single isomer, unassigned)
4.00 to 4.30

Tell us which pIC50 value is on record for C[C@H]1CCN(c2nnn[nH]2)C[C@H](NC(=O)N(C)c2ccc(OC(F)(F)F)c(OC(F)F)c2)C1 (single isomer, unassigned) [25C*]
5.00 to 6.00

Tell us which pIC50 value is on record for C[C@H]1C[C@@H](NC(=O)N(C)c2ccc(OC(F)F)c(F)c2F)[C@@H]2CC[C@H]1N2c1nnn[nH]1 (single isomer, unassigned) [58C*]
4.00 to 4.30

Tell us which pIC50 value is on record for C[C@H]1C[C@@H](NC(=O)N(C)c2ccc(C(F)F)cc2F)[C@@H]2CC[C@H]1N2c1nnn[nH]1 (single isomer, unassigned) [55C*]
4.00 to 4.30

Tell us which pIC50 value is on record for C[C@@H]1CCN(c2nnn[nH]2)C[C@H](NC(=O)N(C)c2ccc(C3CC3)cc2)C1 (single isomer, unassigned)
> 6.00

Tell us which pIC50 value is on record for C[C@@H]1C[C@H](NC(=O)N(C)c2ccc(C(F)(F)F)c(F)c2)[C@H]2CC[C@@H]1N2c1nnn[nH]1 (single isomer, unassigned) [49B*]
< 4.00

Tell us which pIC50 value is on record for C[C@@H]1C[C@@H](NC(=O)N(C)c2ccc(C3CC3)cc2)[C@H]2CC[C@@H]1N2c1nnn[nH]1 (single isomer, unassigned) [46A*]
> 6.00

Tell us which pIC50 value is on record for C[C@H]1C[C@H](NC(=O)N(C)c2ccc(OC(F)F)c(OC(F)F)c2)[C@@H]2CC[C@H]1N2c1nnn[nH]1 (single isomer, unassigned) [64D*]
5.00 to 6.00

Tell us which pIC50 value is on record for C[C@H]1CCN(c2nnn[nH]2)C[C@@H](NC(=O)N(C)c2cnc(C(F)(F)F)nc2)C1 (single isomer, unassigned) [31D*]
4.30 to 5.00

Tell us which pIC50 value is on record for C[C@H]1C[C@@H](NC(=O)N(C)c2ccc3ncoc3c2)CN(c2nnn[nH]2)C1 [Compound 35A]
4.30 to 5.00

Tell us which pIC50 value is on record for CCN(C(=O)N[C@@H]1C[C@@H](C)CCN(c2nnn[nH]2)C1)c1ccc(OC(F)(F)F)cc1 (single isomer, unassigned) [43C*]
4.30 to 5.00

Tell us which pIC50 value is on record for C[C@H]1C[C@H](NC(=O)N(C)c2ccc(C(F)(F)F)c(F)c2F)[C@@H]2CC[C@H]1N2c1nnn[nH]1 (single isomer, unassigned) [47D*]
4.30 to 5.00

====

molecular target: UniProt Q96P20; test: Human Whole Blood (hWB) NLRP3 Assay (LPS/ATP, IL-1β); format: cell-based; design: host or cells: human whole blood from healthy volunteers (A3); conditions: Table C
Assay endpoint: pIC50
Recall that pIC50 is obtained by taking minus log10 of the concentration measured in molar.

Consider the compound C[C@@H]1CCN(c2nnn[nH]2)C[C@H](NC(=O)N(C)c2ccc(Cl)cc2F)C1 (single isomer, unassigned) [5A*] tested on UniProt Q96P20; state its pIC50.
7.44

Consider the compound C[C@@H]1CCN(c2nnn[nH]2)C[C@H](NC(=O)N(C)c2ccc(OC(F)(F)F)cc2)C1 (single isomer, unassigned) [10A*] tested on UniProt Q96P20; state its pIC50.
6.52

Consider the compound C[C@@H]1CCN(c2nnn[nH]2)C[C@H](NC(=O)N(C)c2ccc(C(F)(F)F)cc2F)C1 (single isomer, unassigned) [13A*] tested on UniProt Q96P20; state its pIC50.
6.70

====

Target: human NLRP3 (Homo sapiens)
Test: Scintillation Proximity (SPA) NLRP3 Assay, displacement of 3H-MCC950
Format: binding
Settings: Table B, activity class; displacement of 3H-MCC950 from human NLRP3
Protocol: Improved NLRP3 binding correlates with increased affinity for NLRP3 protein and, by extension, increased ability to interfere with its function. SPA experiments were conducted in a total volume of 20 μL assay buffer containing 20 mM HEPES pH 7.5, 150 mM NaCl, 5 mM MgCl2, 0.01% (v/v) Tween-20, 0.01% (w/v) bovine serum albumin (BSA) and 100 μM of adenosine diphosphate (ADP). […] Binding data was analyzed 6 hrs post-PVT bead addition to allow sufficient time to reach equilibrium. […]
pIC50: −log10 of the molar value.
Assay endpoint: pIC50

Consider the compound C[C@@H]1C[C@@H](NC(=O)N(C)c2ccc(C(F)(F)F)c(F)c2F)[C@H]2CC[C@@H]1N2c1nnn[nH]1 (single isomer, unassigned) [47A*] tested on human NLRP3 (Homo sapiens); state its pIC50.
> 6.00

Consider the compound C[C@@H]1CCN(c2nnn[nH]2)C[C@@H](NC(=O)N(C)c2ccc(C(F)(F)F)c(F)c2)C1 (single isomer, unassigned) tested on human NLRP3 (Homo sapiens); state its pIC50.
5.00 to 6.00

Consider the compound C[C@@H]1C[C@H](NC(=O)N(C)c2ccc(OC(F)(F)F)c(OC(F)F)c2)[C@H]2CC[C@@H]1N2c1nnn[nH]1 (single isomer, unassigned) [63B*] tested on human NLRP3 (Homo sapiens); state its pIC50.
< 4.00

Consider the compound C[C@@H]1CCN(c2nnn[nH]2)C[C@H](NC(=O)N(C)c2ccc(Cl)cc2)C1 (single isomer, unassigned) tested on human NLRP3 (Homo sapiens); state its pIC50.
> 6.00

Consider the compound C[C@H]1CCN(c2nnn[nH]2)C[C@H](NC(=O)N(C)c2ccc(OC(F)F)c(OC(F)F)c2)C1 (single isomer, unassigned) [16C*] tested on human NLRP3 (Homo sapiens); state its pIC50.
4.00 to 4.30

Consider the compound C[C@H]1CCN(c2nnn[nH]2)C[C@H](NC(=O)N(C)c2cnc(C(F)(F)F)cn2)C1 (single isomer, unassigned) [32C*] tested on human NLRP3 (Homo sapiens); state its pIC50.
4.00 to 4.30

Consider the compound C[C@@H]1CCN(c2nnn[nH]2)C[C@H](NC(=O)N(C)c2c(F)cc(OC(F)(F)F)cc2F)C1 (single isomer, unassigned) [41A*] tested on human NLRP3 (Homo sapiens); state its pIC50.
> 6.00

Consider the compound C[C@H]1C[C@H](NC(=O)N(C)c2ccc(C3CC3)c(F)c2)[C@@H]2CC[C@H]1N2c1nnn[nH]1 (single isomer, unassigned) [54D*] tested on human NLRP3 (Homo sapiens); state its pIC50.
4.30 to 5.00

Consider the compound C[C@H]1CCN(c2nnn[nH]2)C[C@H](NC(=O)N(C)c2ccc(OC(F)(F)F)cc2F)C1 (single isomer, unassigned) [24C*] tested on human NLRP3 (Homo sapiens); state its pIC50.
4.30 to 5.00

Consider the compound C[C@H]1C[C@@H](NC(=O)N(C)c2ccc(OC(F)F)cc2)CN(c2nnn[nH]2)C1 [Compound 39A] tested on human NLRP3 (Homo sapiens); state its pIC50.
> 6.00

Consider the compound C[C@@H]1C[C@H](NC(=O)N(C)c2c(F)cc(OC(F)F)cc2F)[C@H]2CC[C@@H]1N2c1nnn[nH]1 (single isomer, unassigned) [61B*] tested on human NLRP3 (Homo sapiens); state its pIC50.
< 4.00

Consider the compound C[C@H]1CCN(c2nnn[nH]2)C[C@@H](NC(=O)N(C)c2ccc(Cl)c(F)c2)C1 (single isomer, unassigned) [12D*] tested on human NLRP3 (Homo sapiens); state its pIC50.
< 4.00

Consider the compound C[C@@H]1CCN(c2nnn[nH]2)C[C@H](NC(=O)N(C)c2ccc(OC(F)(F)F)c(F)c2)C1 (single isomer, unassigned) [14A*] tested on human NLRP3 (Homo sapiens); state its pIC50.
> 6.00

Consider the compound C[C@@H]1C[C@H](NC(=O)N(C)c2ccc(C(F)(F)F)cc2F)[C@H]2CC[C@@H]1N2c1nnn[nH]1 (single isomer, unassigned) [48B*] tested on human NLRP3 (Homo sapiens); state its pIC50.
< 4.00

Consider the compound C[C@H]1CCN(c2nnn[nH]2)C[C@H](NC(=O)N(C)c2ccc(C3CC3)c(F)c2)C1 (single isomer, unassigned) [23C*] tested on human NLRP3 (Homo sapiens); state its pIC50.
4.30 to 5.00

Consider the compound CCN(C(=O)N[C@@H]1C[C@@H](C)[C@@H]2CC[C@H]1N2c1nnn[nH]1)c1ccc(OC(F)F)cc1F (single isomer, unassigned) [65A*] tested on human NLRP3 (Homo sapiens); state its pIC50.
> 6.00

Consider the compound C[C@@H]1CCN(c2nnn[nH]2)C[C@@H](NC(=O)N(C)c2ccc(Cl)cc2Cl)C1 (single isomer, unassigned) tested on human NLRP3 (Homo sapiens); state its pIC50.
5.00 to 6.00

Consider the compound C[C@H]1C[C@@H](NC(=O)N(C)c2ccc(OC(F)(F)F)cc2F)[C@@H]2CC[C@H]1N2c1nnn[nH]1 (single isomer, unassigned) [56C*] tested on human NLRP3 (Homo sapiens); state its pIC50.
4.00 to 4.30

Consider the compound C[C@@H]1CCN(c2nnn[nH]2)C[C@@H](NC(=O)N(C)c2ccc(Cl)cc2F)C1 (single isomer, unassigned) tested on human NLRP3 (Homo sapiens); state its pIC50.
5.00 to 6.00

Consider the compound C[C@H]1C[C@H](NC(=O)N(C)c2ccc(C(F)F)cc2F)[C@@H]2CC[C@H]1N2c1nnn[nH]1 (single isomer, unassigned) [55D*] tested on human NLRP3 (Homo sapiens); state its pIC50.
4.30 to 5.00

Consider the compound C[C@H]1C[C@H](NC(=O)N(C)c2c(F)cc(OC(F)F)cc2F)[C@@H]2CC[C@H]1N2c1nnn[nH]1 (single isomer, unassigned) [61D*] tested on human NLRP3 (Homo sapiens); state its pIC50.
4.30 to 5.00

Consider the compound C[C@@H]1C[C@@H](NC(=O)N(C)c2ccc(OC(F)(F)F)c(F)c2F)[C@H]2CC[C@@H]1N2c1nnn[nH]1 (single isomer, unassigned) [59A*] tested on human NLRP3 (Homo sapiens); state its pIC50.
> 6.00
